Consider the following binders and their measured pKd readings.
TARGET_OF_ASSAY: T1, huMICB*005 alpha 3-his (human)
T1 construct: whole construct entry: GS, alpha 3 domain, GNS, His8; also called MICB005.His; MICB*005 alpha3 construct
T1 chain: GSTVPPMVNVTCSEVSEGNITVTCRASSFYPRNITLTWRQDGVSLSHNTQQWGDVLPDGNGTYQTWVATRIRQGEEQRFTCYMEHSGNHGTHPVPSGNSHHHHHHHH
TEST_PROTOCOL: SPR, Biacore 8K, antibody on Protein A chip
Reminder that pKd is minus the log10 of a molar concentration.

- BINDER: "1D5v21 (antibody, IgG1, V domains shown, humanized variant of 1D5) VH: EIQLVQSGAEVKKPGASVKVSCKASGYAFTSQNIYWVRQAPGQGLEWIGYIEPYNVVPMYNPKFKGRATITVDKSTSTAYLELSSLRSEDTAVYYCARSGSSNFDYWGQGTLVTVSS VL: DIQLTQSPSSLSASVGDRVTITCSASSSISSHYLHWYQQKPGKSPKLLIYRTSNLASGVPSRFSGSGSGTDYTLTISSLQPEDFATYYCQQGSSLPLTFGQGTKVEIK"
  READOUT_KIND: "pKd"
  READOUT_NUMBER: 8.70
- BINDER: "1D5v5 (antibody, IgG1, V domains shown, humanized variant of 1D5) VH: EIQLVQSGAEVKKPGASVKVSCKASGYAFTSQNIYWVRQAPGQGLEWIGYIEPYNVVPMYNPKFKGRATLTVDKSTSTAYMELRSLRSDDTAVYYCARSGSSNFDYWGQGTLVTVSS VL: EIVLTQSPDFQSVTPKEKVTITCSASSSISSHYLHWYQQKPDQSPKLLIKRTSNLASGVPSRFSGSGSGTDFTLTINSLEAEDAATYYCQQGSSLPLTFGQGTKVEIK"
  READOUT_KIND: "pKd"
  READOUT_NUMBER: 8.40

// moving on: another record for pKd
Which pKd is reported for this binder? 15F11v2 (antibody, IgG1, V domains shown, humanized variant of 15F11) VH: EIQLVQSGAEVKKPGASVKVSCKPSGYAFTSNNIYWVRQAPGQGLEWIGYIDPYIGRIIYNQQFKDRATLTVDKSTSTAYLELSSLRSEDTAVYYCSRSGERSNFDYWGQGTLVTVSS VL: EIVLTQSPATLSLSPGERATLSCSASSSISSNYLHWYQQKPGQAPRLLIYRTSNLASGIPARFSGSGSGTDFTLTISSLEPEDFAVYYCQQGGSLPLTFGQGTKVEIK
8.17

Numbers sourced from patent US20200055939A1.
